assay: NCI Yeast Anticancer Drug Screen. Data for the CLN2oe strain (AID 163);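 note: 0% = growth of vehicle-only control cultures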; conditions: S. cerevisiae CLN2oe strain, at 3.7 µM
The panel holds about 79,000 compounds, 15% with a hit somewhere; the sample as a whole holds those more often. Activity calls are given as the source filed them. Cut-off read from the data, not from the text of the source: active = growth inhibition above about 70%; inactive = the rest.
Outcome (select one): y = active, n = inactive

Cc1c(C(=O)C(=O)c2ccccc2)c(C)c(C(=O)C(=O)c2ccccc2)c(C)c1C(=O)C(=O)c1ccccc1: n
Cc1ccc2ccc(O)cc2c1: n
CC(=O)Cc1ccc[cH-]1.[Fe+2].c1cc[cH-]c1: n
C/C(=N/NC(=S)N1CCCCCC1)c1cccc(/C(C)=N\NC(=S)N2CCCCCC2)n1: n
O=Nc1c(NO)ccc2nn(-c3ccccc3)nc12: n
Brc1ccc(-c2cc3c(cc2C2SCCS2)OCO3)cc1: n

Please examine the following record next.
Per the assay record, what outcome was assigned to `O=C(OCC=C1CCCC1)c1cc([N+](=O)[O-])cc([N+](=O)[O-])c1` ?
n

* * *

experiment: NCI Yeast Anticancer Drug Screen. Data for the bub3 strain (AID 167); settings: S. cerevisiae bub3 mutant strain, at 11.0 µM, stronger effect = higher value
About 79,000 compounds went through this panel and 15% of them were active in at least one assay; those are over-represented in the sample as a whole.
Please provide measured growth inhibition for the entries that follow.
One number for each entry, in %.

COc1ccc(-c2cn(-c3ccc(I)cc3)c3ncnc(N)c23)cc1: -3
Cc1cc(CO)c(O)c(CNCc2cc(C)cc(CO)c2O)c1: -13
COc1cc(C2SCC(=O)N2c2ccc(-c3ccc(-n4c(-c5ccccc5)nc5ccccc5c4=O)cc3)cc2)cc(OC)c1OC (stereo not given): 17
O=[N+]([O-])C(=C(Sc1ccccc1)Sc1ccccc1)C(Cl)=C(Cl)Cl: 33

Continue with the next compound.
For the compound shown here, `NC(=S)N/N=C\c1nccc2ccccc12` , give the reported growth inhibition.
26

* * *

assay: NCI Yeast Anticancer Drug Screen. Data for the wt1 strain (AID 149);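 note: 0% = growth of vehicle-treated wt1 cultures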; settings: S. cerevisiae wt1 strain (SPY 50644) growth inhibition; at 33.0 µM; stronger effect = higher value
This is part of a sample that, as a whole, favours compounds with a hit. Of some 79,000 tested, about 15% had one in any assay.
Please provide measured growth inhibition for the entries that follow.
Answers are plain numbers, in %.

For orientation, consider the following solved cases.
COC(=O)C1=C(C)NC(C)=C(C(=O)OC)C1c1cccc(/[N+]([O-])=C/c2ccccc2)c1: 18
COC1=CC(=O)C(C2(OC(C)C)OC(=O)C(Cl)=C2Cl)=CC1=O (stereo not given): 99
C(CCSC1=NCCN1)CSC1=NCCN1 (tested in a mixture with another compound): 99
Cc1nc(-[n+]2nc(-c3ccncc3)nn2-c2ccccc2)sc1C: 9

Continue with the next compound.
For the compound shown here, `Cc1ccc(Nc2nc3c(=O)n(C)c(=O)n(C)c3nc2Nc2ccc(C)cc2)cc1` , give the reported growth inhibition.
-3

* * *

assay: NCI Yeast Anticancer Drug Screen. Data for the wt2 strain (AID 169);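 note: 0% = growth of vehicle-treated yeast cultures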; conditions: S. cerevisiae wt2 strain growth inhibition; at 33.0 µM; stronger effect = higher value
About 79,000 compounds went through this panel and 15% of them were active in at least one assay; those are over-represented in the sample as a whole.
Range-based classes on measured growth inhibition: low class (below 10%), middle class (10% to below 90%), high class (90% or more)

Solved entries:
O=C(/C=C\c1ccc(Cl)cc1Cl)c1cccs1: low class
O=[N+]([O-])c1cc2no[n+]([O-])c2cc1N1CCCCC1: high class
Oc1cccc2c(Cl)ccnc12: high class

Hi, small favor: classify `O=S(=O)(CCCl)c1ccccc1Cl` by its growth inhibition when you get a moment.
high class

Hi, small favor: classify `C[Si](C)(C)CNC(=O)OCc1ccccc1` by its growth inhibition when you get a moment.
low class

Hi, small favor: classify `CCOC(=O)c1cnc2cc(C(F)(F)F)ccc2c1N=[N+]=[N-]` by its growth inhibition when you get a moment.
middle class

Hi, small favor: classify `CC(C)NC(=O)OCc1c(COC(=O)NC(C)C)c(-c2ccc(Cl)c(Cl)c2)n2c1CCC2` by its growth inhibition when you get a moment.
low class

Hi, small favor: classify `CC(=O)ON1C(=O)c2cccc3cccc(c23)C1=O` by its growth inhibition when you get a moment.
high class

Hi, small favor: classify `O=C1c2ccccc2C(=O)c2cc(CBr)ccc21` by its growth inhibition when you get a moment.
middle class

Hi, small favor: classify `c1ccc(-c2ccnc3c2ccc2c(-c4ccccc4)ccnc23)cc1` by its growth inhibition when you get a moment.
high class

Hi, small favor: classify `CC1CCN(CCC(=O)c2ccc(Cl)cc2)CC1` by its growth inhibition when you get a moment.
low class

Hi, small favor: classify CC1C(NNc2ccccc2)Oc2cc3c(cc2C1c1ccccc1O)OCO3 (stereo not drawn) by its growth inhibition when you get a moment.
high class
